Listing of recorded speed of sound by entry.
# assay-setup: 303.15 K; 101.33 kPa; Liquid; Sing-around technique in a fixed-path interferometer
readout-kind: speed of sound (m/s)

- CCCC[n+]1cccc(C)c1.F[B-](F)(F)F [1-butyl-3-methylpyridinium tetrafluoroborate]: 1573.8
- CCO: 1127.2
- CCCC[n+]1ccc(C)cc1.F[B-](F)(F)F [1-butyl-4-methylpyridinium tetrafluoroborate]: 1586.7
- CO: 1086

---

# assay-setup: 293.15 K; 101.33 kPa; Liquid; Sing-around technique in a fixed-path interferometer
readout-kind: speed of sound (m/s)

• CCCC[n+]1ccc(C)cc1.F[B-](F)(F)F [1-butyl-4-methylpyridinium tetrafluoroborate] = 1611.8
• CCO [ethanol] = 1160.1
• CCCC[n+]1cccc(C)c1.F[B-](F)(F)F [1-butyl-3-methylpyridinium tetrafluoroborate] = 1598.5
• CO [methanol] = 1118.8

---

# assay-setup: 323.15 K; 101.33 kPa; Liquid; Sing-around technique in a fixed-path interferometer
Listing of recorded speed of sound by entry.
readout-kind: speed of sound (m/s)

• CO [methanol] = 1021.5
• CCCC[n+]1cccc(C)c1.F[B-](F)(F)F [1-butyl-3-methylpyridinium tetrafluoroborate] = 1527
• CCCC[n+]1ccc(C)cc1.F[B-](F)(F)F [1-butyl-4-methylpyridinium tetrafluoroborate] = 1539.3
• CCO [ethanol] = 1060.4

---

# assay-setup: 313.15 K; 101.33 kPa; Liquid; Vibrating tube method
Listing of recorded mass density by entry.
readout-kind: mass density (kg/m3)

* CCCC[n+]1ccc(C)cc1.F[B-](F)(F)F [1-butyl-4-methylpyridinium tetrafluoroborate] | 1172.12
* CO | 772.287
* CCO | 772.569
* CCCC[n+]1cccc(C)c1.F[B-](F)(F)F [1-butyl-3-methylpyridinium tetrafluoroborate] | 1172.11

---

Listing of recorded speed of sound by entry.
# assay-setup: 313.15 K; 101.33 kPa; Liquid; Sing-around technique in a fixed-path interferometer
readout-kind: speed of sound (m/s)

* CCO | 1093.6
* CCCC[n+]1ccc(C)cc1.F[B-](F)(F)F [1-butyl-4-methylpyridinium tetrafluoroborate] | 1562.8
* CCCC[n+]1cccc(C)c1.F[B-](F)(F)F [1-butyl-3-methylpyridinium tetrafluoroborate] | 1550.1
* CO | 1053.5

---

# assay-setup: 323.15 K; 101.33 kPa; Liquid; Vibrating tube method
readout-kind: mass density (kg/m3)

• CO = 762.628
• CCCC[n+]1cccc(C)c1.F[B-](F)(F)F [1-butyl-3-methylpyridinium tetrafluoroborate] = 1165.37
• CCO = 763.647
• CCCC[n+]1ccc(C)cc1.F[B-](F)(F)F [1-butyl-4-methylpyridinium tetrafluoroborate] = 1165.52

---

# assay-setup: 293.15 K; 101.33 kPa; Liquid; Vibrating tube method
Listing of recorded mass density by entry.
readout-kind: mass density (kg/m3)

- CCCC[n+]1cccc(C)c1.F[B-](F)(F)F [1-butyl-3-methylpyridinium tetrafluoroborate]: 1185.65
- CCO: 789.481
- CO: 791.243
- CCCC[n+]1ccc(C)cc1.F[B-](F)(F)F [1-butyl-4-methylpyridinium tetrafluoroborate]: 1185.92

---

# assay-setup: 303.15 K; 101.33 kPa; Liquid; Vibrating tube method
± gives the expanded uncertainty stated by the source.
Listing of recorded mass density by entry.
readout-kind: mass density

* CCO [ethanol] | 781.302 ± 0.15 kg/m3
* CCCC[n+]1cccc(C)c1.F[B-](F)(F)F [1-butyl-3-methylpyridinium tetrafluoroborate] | 1178.86 ± 0.38 kg/m3
* CO [methanol] | 781.813 ± 0.13 kg/m3
* CCCC[n+]1ccc(C)cc1.F[B-](F)(F)F [1-butyl-4-methylpyridinium tetrafluoroborate] | 1179.12 ± 0.38 kg/m3
